Target: ovine COX-1 (Ovis aries)
Sequence (P05979 25-600): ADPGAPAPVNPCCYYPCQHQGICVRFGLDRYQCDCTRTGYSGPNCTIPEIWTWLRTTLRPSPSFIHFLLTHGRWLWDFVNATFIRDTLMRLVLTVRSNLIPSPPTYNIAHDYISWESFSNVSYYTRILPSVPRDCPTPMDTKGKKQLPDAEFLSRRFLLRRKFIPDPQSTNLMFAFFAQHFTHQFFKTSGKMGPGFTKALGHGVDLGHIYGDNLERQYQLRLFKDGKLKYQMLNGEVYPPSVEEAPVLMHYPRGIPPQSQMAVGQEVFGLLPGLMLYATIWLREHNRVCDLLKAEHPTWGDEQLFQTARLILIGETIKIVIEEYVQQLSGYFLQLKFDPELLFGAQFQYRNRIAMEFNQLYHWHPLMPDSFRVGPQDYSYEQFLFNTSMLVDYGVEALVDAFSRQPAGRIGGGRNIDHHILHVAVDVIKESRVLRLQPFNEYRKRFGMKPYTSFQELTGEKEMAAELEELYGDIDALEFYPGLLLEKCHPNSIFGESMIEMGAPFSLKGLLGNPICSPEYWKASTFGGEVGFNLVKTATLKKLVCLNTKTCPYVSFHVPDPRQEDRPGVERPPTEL
Parameter measured: IC50 (µM)
Just the number in µM, nothing appended.

IC50 for C/C(=N\NC(=O)Cn1c(-c2ccc(S(C)(=O)=O)cc2)nc2ccccc21)c1ccc(Cl)cc1 [12b] ?
12.5

IC50 for CS(=O)(=O)c1ccc(-c2nc3cc(Cl)ccc3n2CC(=O)N/N=C/c2ccc(Cl)cc2)cc1 [11f] ?
10.2

IC50 for Cc1ccc2c(c1)nc(-c1ccc(S(C)(=O)=O)cc1)n2CC(=O)N/N=C/c1ccc(F)cc1 [11l] ?
7.96

IC50 for C/C(=N\NC(=O)Cn1c(-c2ccc(S(C)(=O)=O)cc2)nc2cc(Cl)ccc21)c1ccc(Cl)cc1 [12d] ?
13.2

IC50 for Cc1ccc2c(c1)nc(-c1ccc(S(C)(=O)=O)cc1)n2CC(=O)N/N=C/c1ccc(Cl)cc1 [11j] ?
11.2

* * *

Molecular target: ovine COX-2 (Ovis aries)
Sequence (P79208 17-603): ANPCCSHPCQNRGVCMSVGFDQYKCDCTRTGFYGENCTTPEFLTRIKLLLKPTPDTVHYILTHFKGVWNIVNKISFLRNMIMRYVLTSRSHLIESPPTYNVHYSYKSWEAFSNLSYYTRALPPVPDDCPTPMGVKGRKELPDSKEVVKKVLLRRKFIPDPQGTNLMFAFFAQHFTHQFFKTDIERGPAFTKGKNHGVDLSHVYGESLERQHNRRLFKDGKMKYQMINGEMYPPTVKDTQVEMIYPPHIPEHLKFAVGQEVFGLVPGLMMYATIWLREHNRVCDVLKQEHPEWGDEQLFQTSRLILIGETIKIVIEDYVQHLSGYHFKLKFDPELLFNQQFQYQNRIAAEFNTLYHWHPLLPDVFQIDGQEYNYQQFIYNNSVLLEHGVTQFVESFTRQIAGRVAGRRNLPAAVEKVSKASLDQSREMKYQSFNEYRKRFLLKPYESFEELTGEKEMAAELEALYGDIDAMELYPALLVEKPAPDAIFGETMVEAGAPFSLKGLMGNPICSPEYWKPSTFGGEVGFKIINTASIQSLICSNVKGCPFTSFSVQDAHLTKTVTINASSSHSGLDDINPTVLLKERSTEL
Assay: In vitro cyclooxygenase
Assay type: biochemical
Conditions: COX-1 IC50/COX-2 IC50
Sorting guide: entries reporting Selectivity index (SI) beneath 60 go in the y pile, the rest go in the n pile.

Answer whether the compound C/C(=N\NC(=O)Cn1c(-c2ccc(S(C)(=O)=O)cc2)nc2ccccc21)c1ccccc1 [12a] has Selectivity index (SI) strictly less than 60
y

Answer whether the compound C/C(=N\NC(=O)Cn1c(-c2ccc(S(C)(=O)=O)cc2)nc2cc(C)ccc21)c1ccc(Cl)cc1 [12f] has Selectivity index (SI) strictly less than 60
y

Answer whether the compound CS(=O)(=O)c1ccc(-c2nc3cc(Cl)ccc3n2CC(=O)N/N=C/c2ccc(F)cc2)cc1 [11h] has Selectivity index (SI) strictly less than 60
y

Answer whether the compound CS(=O)(=O)c1ccc(-c2nc3ccccc3n2CC(=O)N/N=C/c2ccccc2)cc1 [11a] has Selectivity index (SI) strictly less than 60
y

Answer whether the compound CS(=O)(=O)c1ccc(-c2nc3ccccc3n2CC(=O)N/N=C/c2ccc(Cl)cc2)cc1 [11b] has Selectivity index (SI) strictly less than 60
n

Answer whether the compound CS(=O)(=O)c1ccc(-c2nc3cc(Cl)ccc3n2CC(=O)N/N=C/c2ccc(Cl)cc2)cc1 [11f] has Selectivity index (SI) strictly less than 60
n

Answer whether the compound CS(=O)(=O)c1ccc(-c2nc3ccccc3n2CC(=O)N/N=C/c2ccc(F)cc2)cc1 [11d] has Selectivity index (SI) strictly less than 60
n

Answer whether the compound COc1ccc(/C=N/NC(=O)Cn2c(-c3ccc(S(C)(=O)=O)cc3)nc3ccccc32)cc1 [11c] has Selectivity index (SI) strictly less than 60
n

Answer whether the compound Cc1ccc2c(c1)nc(-c1ccc(S(C)(=O)=O)cc1)n2CC(=O)N/N=C/c1ccc(Cl)cc1 [11j] has Selectivity index (SI) strictly less than 60
n

Answer whether the compound Cc1ccc2c(c1)nc(-c1ccc(S(C)(=O)=O)cc1)n2CC(=O)N/N=C/c1ccc(F)cc1 [11l] has Selectivity index (SI) strictly less than 60
y

Answer whether the compound COc1ccc(/C=N/NC(=O)Cn2c(-c3ccc(S(C)(=O)=O)cc3)nc3cc(Cl)ccc32)cc1 [11g] has Selectivity index (SI) strictly less than 60
n
